Please respond with reported log10 of Trimeric HA Binding: RLU for every item in the list.
# measuredOn: recombinant soluble homotrimeric HA of A/northern shoveler/California/HKWF115/07 (Influenza A virus A/northern shoveler/California/HKWF115/2007)
# test: microarray, BCC supernatant IgG, trimeric HA
# statedConditions: remark: other sources report otherwise
The common logarithm of Trimeric HA Binding: RLU in RLU is what is listed.

Asked: Return reported log10 of Trimeric HA Binding: RLU; argument: TCN-533 (5256_A17) (antibody, V domains shown) VH: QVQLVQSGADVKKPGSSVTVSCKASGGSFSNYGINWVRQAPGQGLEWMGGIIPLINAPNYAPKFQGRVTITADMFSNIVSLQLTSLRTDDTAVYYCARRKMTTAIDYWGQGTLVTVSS VL: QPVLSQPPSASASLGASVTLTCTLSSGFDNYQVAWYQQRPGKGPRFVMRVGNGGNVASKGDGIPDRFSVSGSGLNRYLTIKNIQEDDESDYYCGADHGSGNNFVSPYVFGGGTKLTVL
Given back: 4.62

Asked: Return reported log10 of Trimeric HA Binding: RLU; argument: TCN-551 (5243_D01) (antibody, V domains shown) VH: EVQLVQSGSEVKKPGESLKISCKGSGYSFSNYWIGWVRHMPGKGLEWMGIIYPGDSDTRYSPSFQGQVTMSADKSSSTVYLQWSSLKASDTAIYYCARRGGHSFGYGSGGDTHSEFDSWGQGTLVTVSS VL: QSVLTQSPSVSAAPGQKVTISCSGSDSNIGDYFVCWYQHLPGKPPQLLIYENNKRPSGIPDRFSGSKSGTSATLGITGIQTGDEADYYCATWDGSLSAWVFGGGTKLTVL
Given back: 4.72

Asked: Return reported log10 of Trimeric HA Binding: RLU; argument: TCN-546 (5089_L08) (antibody, V domains shown) VH: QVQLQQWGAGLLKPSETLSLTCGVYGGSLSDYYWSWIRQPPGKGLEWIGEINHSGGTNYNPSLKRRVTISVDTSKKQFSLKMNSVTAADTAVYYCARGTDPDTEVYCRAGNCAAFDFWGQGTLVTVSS VL: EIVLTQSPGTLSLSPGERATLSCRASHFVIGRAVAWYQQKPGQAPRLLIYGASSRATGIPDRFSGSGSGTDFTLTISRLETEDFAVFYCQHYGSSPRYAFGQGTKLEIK
Given back: 3.13

Asked: Return reported log10 of Trimeric HA Binding: RLU; argument: TCN-547 (5092_F11) (antibody, V domains shown) VH: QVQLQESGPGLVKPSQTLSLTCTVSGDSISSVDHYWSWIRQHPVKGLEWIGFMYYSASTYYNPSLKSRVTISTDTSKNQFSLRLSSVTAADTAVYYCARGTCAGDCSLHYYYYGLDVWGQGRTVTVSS VL: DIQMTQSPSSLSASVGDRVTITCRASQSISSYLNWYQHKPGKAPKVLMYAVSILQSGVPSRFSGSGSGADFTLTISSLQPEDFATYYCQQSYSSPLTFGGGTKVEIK
Given back: 3.00

Asked: Return reported log10 of Trimeric HA Binding: RLU; argument: TCN-545 (5082_I15) (antibody, V domains shown) VH: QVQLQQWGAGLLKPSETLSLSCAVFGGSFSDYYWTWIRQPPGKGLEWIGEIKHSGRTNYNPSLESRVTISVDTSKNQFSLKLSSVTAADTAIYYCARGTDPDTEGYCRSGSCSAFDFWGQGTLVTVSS VL: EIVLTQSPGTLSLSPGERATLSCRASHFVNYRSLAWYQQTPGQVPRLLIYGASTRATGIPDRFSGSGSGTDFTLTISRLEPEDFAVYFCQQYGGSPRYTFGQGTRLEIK
Given back: 3.07

Asked: Return reported log10 of Trimeric HA Binding: RLU; argument: TCN-542 (5079_A16) (antibody, V domains shown) VH: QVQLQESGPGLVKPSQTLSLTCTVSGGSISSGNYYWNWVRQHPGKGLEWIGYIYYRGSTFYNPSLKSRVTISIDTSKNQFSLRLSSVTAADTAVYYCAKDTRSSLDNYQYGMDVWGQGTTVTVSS VL: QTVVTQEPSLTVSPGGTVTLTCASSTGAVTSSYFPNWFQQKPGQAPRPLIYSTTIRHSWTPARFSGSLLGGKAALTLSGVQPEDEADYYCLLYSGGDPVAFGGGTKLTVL
Given back: 2.95

Data credit: patent US20120207760A1
